measured-target: human GPIIbIIIa (Homo sapiens, UniProt P05106+P08514)
Sequence (P08514 32-887 limits assumed): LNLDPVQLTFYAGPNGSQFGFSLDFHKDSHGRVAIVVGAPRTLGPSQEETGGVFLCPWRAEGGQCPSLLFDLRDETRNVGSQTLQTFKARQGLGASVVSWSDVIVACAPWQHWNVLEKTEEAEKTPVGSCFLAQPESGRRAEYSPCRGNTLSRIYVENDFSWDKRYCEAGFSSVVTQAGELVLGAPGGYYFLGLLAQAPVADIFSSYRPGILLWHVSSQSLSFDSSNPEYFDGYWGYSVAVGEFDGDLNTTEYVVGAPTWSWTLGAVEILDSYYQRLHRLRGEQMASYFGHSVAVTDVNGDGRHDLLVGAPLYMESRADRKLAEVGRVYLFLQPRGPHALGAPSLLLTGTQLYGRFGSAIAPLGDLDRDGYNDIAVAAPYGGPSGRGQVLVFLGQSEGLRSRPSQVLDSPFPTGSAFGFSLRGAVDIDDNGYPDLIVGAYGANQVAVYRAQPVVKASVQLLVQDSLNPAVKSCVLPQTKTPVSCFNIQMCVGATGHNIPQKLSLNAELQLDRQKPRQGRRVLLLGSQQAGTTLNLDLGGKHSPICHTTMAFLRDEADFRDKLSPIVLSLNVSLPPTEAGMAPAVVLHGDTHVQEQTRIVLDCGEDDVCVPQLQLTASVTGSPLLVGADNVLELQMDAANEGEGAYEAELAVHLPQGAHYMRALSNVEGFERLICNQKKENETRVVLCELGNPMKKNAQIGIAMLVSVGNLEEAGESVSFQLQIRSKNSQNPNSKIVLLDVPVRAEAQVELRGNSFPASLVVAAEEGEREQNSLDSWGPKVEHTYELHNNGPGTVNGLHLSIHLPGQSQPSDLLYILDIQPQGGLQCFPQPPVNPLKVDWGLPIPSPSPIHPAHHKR
Sequence (P08514 891-1039 partner limits assumed): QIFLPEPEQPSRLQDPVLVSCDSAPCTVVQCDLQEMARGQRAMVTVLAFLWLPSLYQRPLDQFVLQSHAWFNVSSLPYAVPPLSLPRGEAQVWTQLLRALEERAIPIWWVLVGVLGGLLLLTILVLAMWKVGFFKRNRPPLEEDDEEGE
Sequence (P05106 27-788): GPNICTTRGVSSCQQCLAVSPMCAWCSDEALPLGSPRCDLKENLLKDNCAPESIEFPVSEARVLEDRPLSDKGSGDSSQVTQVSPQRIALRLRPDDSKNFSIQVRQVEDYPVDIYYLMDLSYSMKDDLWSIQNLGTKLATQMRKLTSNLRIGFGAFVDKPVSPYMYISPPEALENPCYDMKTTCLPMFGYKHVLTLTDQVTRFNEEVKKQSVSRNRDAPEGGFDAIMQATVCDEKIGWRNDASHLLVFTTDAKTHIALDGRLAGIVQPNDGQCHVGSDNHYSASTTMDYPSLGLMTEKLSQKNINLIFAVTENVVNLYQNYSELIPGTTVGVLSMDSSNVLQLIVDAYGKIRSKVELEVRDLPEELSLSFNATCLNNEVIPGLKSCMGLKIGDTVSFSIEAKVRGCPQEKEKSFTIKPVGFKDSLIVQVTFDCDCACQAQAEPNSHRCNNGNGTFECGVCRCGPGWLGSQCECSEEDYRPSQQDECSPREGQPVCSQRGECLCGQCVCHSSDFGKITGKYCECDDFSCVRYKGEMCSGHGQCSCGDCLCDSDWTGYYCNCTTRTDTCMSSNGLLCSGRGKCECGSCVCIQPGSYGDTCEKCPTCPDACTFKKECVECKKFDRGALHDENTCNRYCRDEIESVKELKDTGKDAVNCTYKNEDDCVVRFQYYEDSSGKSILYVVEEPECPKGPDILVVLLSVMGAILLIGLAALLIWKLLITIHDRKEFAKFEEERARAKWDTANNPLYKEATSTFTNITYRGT
method-description: Fibrinogen-IIb-IIIa assay (ELISA, inhibition of fibrinogen-GPIIbIIIa interaction)
protocol-conditions: mean of three replicate determinations; FIG. 1
pIC50: −log10 of the molar value.

molecule	measured-target	pIC50
CCCCS(=O)(=O)N[C@@H](Cc1ccc(OCCCONC(=N)N)cc1)C(=O)O [Example 1, trifluoroacetic acid]	human GPIIbIIIa (Homo sapiens, UniProt P05106+P08514)	6.11

====

measured-target: human αvβ3 (Homo sapiens, UniProt P05106+P06756)
Construct: purchased Chemicon CC10118
Sequence (P06756 31-889 limits assumed): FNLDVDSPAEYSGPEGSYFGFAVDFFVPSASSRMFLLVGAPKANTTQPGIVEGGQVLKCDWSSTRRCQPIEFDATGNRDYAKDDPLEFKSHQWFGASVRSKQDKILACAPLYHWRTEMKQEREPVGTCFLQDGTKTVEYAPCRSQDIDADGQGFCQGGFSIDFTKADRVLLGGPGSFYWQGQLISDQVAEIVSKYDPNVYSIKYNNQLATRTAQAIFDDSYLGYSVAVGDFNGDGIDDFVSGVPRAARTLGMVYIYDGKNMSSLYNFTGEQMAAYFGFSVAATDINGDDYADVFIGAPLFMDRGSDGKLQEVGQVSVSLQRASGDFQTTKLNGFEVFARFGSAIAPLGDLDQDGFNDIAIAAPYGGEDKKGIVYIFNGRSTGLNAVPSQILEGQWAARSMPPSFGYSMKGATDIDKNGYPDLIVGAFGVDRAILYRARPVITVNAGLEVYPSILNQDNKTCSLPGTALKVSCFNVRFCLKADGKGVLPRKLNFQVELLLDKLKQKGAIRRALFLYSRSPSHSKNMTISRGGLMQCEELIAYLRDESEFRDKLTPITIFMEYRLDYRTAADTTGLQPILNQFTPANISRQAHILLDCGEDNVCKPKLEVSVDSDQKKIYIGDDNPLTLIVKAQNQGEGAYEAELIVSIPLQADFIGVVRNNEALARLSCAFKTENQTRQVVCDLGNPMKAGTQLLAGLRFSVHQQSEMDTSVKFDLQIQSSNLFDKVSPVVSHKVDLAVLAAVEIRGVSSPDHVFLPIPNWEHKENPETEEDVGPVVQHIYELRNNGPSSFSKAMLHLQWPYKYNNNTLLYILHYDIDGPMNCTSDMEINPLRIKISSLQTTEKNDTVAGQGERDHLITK
Sequence (P06756 891-1048 partner limits assumed): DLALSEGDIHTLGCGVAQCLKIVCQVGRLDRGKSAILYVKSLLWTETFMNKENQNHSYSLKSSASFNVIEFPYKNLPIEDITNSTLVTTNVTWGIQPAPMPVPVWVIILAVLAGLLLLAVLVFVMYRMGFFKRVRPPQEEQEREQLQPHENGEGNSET
Sequence (P05106 27-788): as the sequence (P05106 27-788) above
method-description: αvβ3-vitronectin assay (ELISA, inhibition of αvβ3-vitronectin interaction)
Format: binding
protocol-conditions: Table I; read-out: αvβ3 IC50 (nM), inhibition of the αvβ3-vitronectin interaction
Structures can show the parent of a compound that is named as a salt.
Measured IC50 values are reported for all entries that follow.

compound	IC50, nM
Cc1ccc([N+](=O)[O-])cc1S(=O)(=O)N[C@@H](Cc1ccc(OCCCONC(=N)N)cc1)C(=O)O [Example 11, trifluoroacetic acid salt]	2
CC1(C)C2CCC1(CS(=O)(=O)N[C@@H](Cc1ccc(OCCCONC(=N)N)cc1)C(=O)O)C(=O)C2 (stereo partly shown) [Example 86, trifluoroacetic acid salt]	1
N=C(N)NOCCCOc1ccc(C[C@H](NS(=O)(=O)c2c(Cl)cccc2Cl)C(=O)O)cc1 [Example 46, trifluoroacetic acid salt]	2
Cc1nn(C)c(Cl)c1S(=O)(=O)N[C@@H](Cc1ccc(OCCCONC(=N)N)cc1)C(=O)O [Example 77, trifluoroacetic acid salt]	6

Data credit: patent US6344484B1
